Entries and their folding stability dG values follow.
B1: r16_88_TrROS_Hall (parent)
chain: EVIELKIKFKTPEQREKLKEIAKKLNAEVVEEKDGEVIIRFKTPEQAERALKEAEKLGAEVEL

variants of: B1; test: folding stability dG (cDNA display proteolysis); higher = more stable; details: PBS, room temperature
OBSERVATION_TYPE: folding stability dG

- N26T: 4.41 kcal/mol
- K6F: 4.76 kcal/mol
- K42F: 4.33 kcal/mol
- E55Y: 4.66 kcal/mol
- L5R: 4.4 kcal/mol
- E13F: 4.99 kcal/mol
- I39A: 4.41 kcal/mol
- R15L: 4.18 kcal/mol
- V2T: 4.19 kcal/mol
- E31V: 4.37 kcal/mol
- K17D: 4.49 kcal/mol
- L5V: 4.29 kcal/mol
- L5H: 4.34 kcal/mol
- G35Y: 4.18 kcal/mol
- L25Q: 4.42 kcal/mol
- A59F: 4.59 kcal/mol
- I21N: 4.13 kcal/mol
- L57H: 4.26 kcal/mol
- E48S: 4.39 kcal/mol
- A47K: 4.65 kcal/mol
- R40E: 3.93 kcal/mol
- I3Q: 4.76 kcal/mol
